Ref: patent US20040067998A1

property: melting point

Some solved cases for reference:
{"columns": ["compound", "property", "measured"],
 "data": [
  ["CCn1cc(C(c2ccc(Cl)cc2Cl)n2cncn2)c2cc(Br)ccc21 (stereo not shown)", "melting point", "124 to 126 °C"],
  ["CCN1CCc2cc(Br)cc(C(c3ccc(F)cc3)n3ccnc3)c21 (stereo not shown)", "melting point", "120 to 123 °C"],
  ["Clc1ccc(Cn2cc(CCn3ccnc3)c3ccccc32)cc1", "melting point", "78 to 80 °C"]
]}

Problem: Tell me its melting point given Clc1ccc(Cn2cc(C3(Cn4ccnc4)CCCC3)c3ccccc32)cc1 as the entry.
Result: 91 to 92 °C
